Test system: HOP-62
test_name: NCI tumour cell line growth inhibition, 48 h
Activity calls are given as the source filed them. No stated cut-off is given here; in the data, active = GI50 up to about 1.1 µM and inactive = higher.
Select the matching outcome among 1.0 (active), 0.0 (inactive)

Incoming: Which outcome was entered for the compound COc1cccc(NC(=O)CC(=O)N2N=C(N3c4ccccc4Sc4ccccc43)CC2c2ccccc2)c1 (stereo unspecified) in this test?
Outgoing: 0.0

Incoming: Which outcome was entered for the compound C[C@@H]1CC[C@]2(C)C3(C)CC[C@]2(OC3=O)[C@@]12CC(c1ccoc1)OC2=O (stereo partly specified) in this test?
Outgoing: 0.0

Incoming: Which outcome was entered for the compound C/C1=C\[C@H](C)C[C@H](C)OC(=O)[C@H](C)NC(=O)[C@@H](Cc2ccc(O)c(Br)c2)N(C)C(=O)[C@H](C)NC(=O)[C@@H](C)C1 in this test?
Outgoing: 1.0

Incoming: Which outcome was entered for the compound CC(=O)c1csc2c1C(=O)c1ccccc1C2=O in this test?
Outgoing: 0.0

Incoming: Which outcome was entered for the compound CCCCC(=O)OCC(=O)[C@]1(O)Cc2c(O)c3c(c(O)c2[C@@H](OC2CC(NC(=O)C(F)(F)F)C(O)C(C)O2)C1)C(=O)c1c(OC)cccc1C3=O (stereo partly specified) in this test?
Outgoing: 1.0

Incoming: Which outcome was entered for the compound CC(=O)NCCSC(=O)c1ccccc1 in this test?
Outgoing: 1.0

Incoming: Which outcome was entered for the compound Cc1nn(C(=O)Cc2ccccc2)c2c1C(c1ccc(Cl)cc1)SC(=N)N2 (stereo unspecified) in this test?
Outgoing: 0.0

Incoming: Which outcome was entered for the compound CNS(=O)(=O)NNS(=O)(=O)c1ccccc1 in this test?
Outgoing: 0.0

Incoming: Which outcome was entered for the compound CC(C)c1[nH]nc(C(N)=O)c1/N=N/N(C)C in this test?
Outgoing: 0.0

Incoming: Which outcome was entered for the compound CCOP(=O)(OCC)c1cc2cc(O)ccc2oc1=O in this test?
Outgoing: 0.0

Incoming: Which outcome was entered for the compound Cc1ccc(/C=C2\Sc3scc(-c4ccccc4)[n+]3C2=O)cc1 in this test?
Outgoing: 0.0

Incoming: Which outcome was entered for the compound COc1cc2nc3n(c(=O)c2cc1OC)-c1ccc([N+](=O)[O-])cc1C3=O in this test?
Outgoing: 0.0

Incoming: Which outcome was entered for the compound O=c1c2cccnc2cc(-c2ccccc2)n1CCO in this test?
Outgoing: 0.0

Incoming: Which outcome was entered for the compound COc1ccc(C[C@@H]2CN(C(=O)c3ccccc3)[C@H](Cc3ccc(O)cc3)CN2C(=O)c2ccccc2)cc1Br in this test?
Outgoing: 0.0

Incoming: Which outcome was entered for the compound C=C1C(C)C2C(Cc3ccccc3)NC(=O)C23OC(=O)/C=C\CC(=O)CCC(C)C/C=C/C3C1O (stereo unspecified) in this test?
Outgoing: 0.0

Incoming: Which outcome was entered for the compound CCO/C([O-])=C(\C(=O)c1ccccc1)[n+]1c(C)n(C)c2ccccc21 in this test?
Outgoing: 0.0

Incoming: Which outcome was entered for the compound Cn1ncc2[nH]cnc2c1=S in this test?
Outgoing: 0.0

Incoming: Which outcome was entered for the compound CCOc1ccc(NCc2cc(OC)c(OC)c(OC)c2)cc1 in this test?
Outgoing: 1.0

Incoming: Which outcome was entered for the compound O=C1c2cc3c(cc2CC1Br)CCC3 (stereo unspecified) in this test?
Outgoing: 0.0

Incoming: Which outcome was entered for the compound CNC(=O)Nc1nc2cc([N+](=O)[O-])ccc2[nH]1 in this test?
Outgoing: 0.0

Incoming: Which outcome was entered for the compound CC(C)(c1ccccc1)c1ccc(Oc2ccc3c(c2)-c2nc-3nc3[nH]c(nc4nc(nc5[nH]c(n2)c2ccc(Oc6ccc(C(C)(C)c7ccccc7)cc6)cc52)-c2cc(Oc5ccc(C(C)(C)c6ccccc6)cc5)ccc2-4)c2ccc(Oc4ccc(C(C)(C)c5ccccc5)cc4)cc32)cc1 in this test?
Outgoing: 0.0

Incoming: Which outcome was entered for the compound O=C(O)C1CCCCN1c1ccccc1[N+](=O)[O-] (stereo unspecified) in this test?
Outgoing: 0.0

Incoming: Which outcome was entered for the compound CCN(CC)/N=N/c1c(C(N)=O)n[nH]c1C in this test?
Outgoing: 0.0

Incoming: Which outcome was entered for the compound COc1ccc(C/C=C(\C)CCO)cc1 in this test?
Outgoing: 0.0

Incoming: Which outcome was entered for the compound CNC(=O)N1CN(c2ccccc2)C2(CCN(Cc3ccccc3)CC2)C1=O in this test?
Outgoing: 0.0

Incoming: Which outcome was entered for the compound O=C1CCCCC/C1=C\c1ccc(Cl)cc1 in this test?
Outgoing: 0.0

Incoming: Which outcome was entered for the compound Cc1cc(C)nc(NS(=O)(=O)c2ccc(Nc3nncc(=O)n3N)cc2)n1 in this test?
Outgoing: 0.0

Incoming: Which outcome was entered for the compound CCCCN1C(=O)CC2[C@@H]3CCc4cc(OC(C)=O)ccc4C3CC[C@]2(C)C1=O (stereo partly specified) in this test?
Outgoing: 0.0

Incoming: Which outcome was entered for the compound COc1ccc(C2=CN3CCC[C@H]3C=C2c2cc(O)c(OC)c(OC)c2)cc1OC in this test?
Outgoing: 1.0

Incoming: Which outcome was entered for the compound C=C1CC(Cn2cc(Br)c(=O)[nH]c2=O)(c2ccc(-c3ccccc3)cc2)OC1=O (stereo unspecified) in this test?
Outgoing: 0.0

Incoming: Which outcome was entered for the compound C=C(CO)[C@H]1Oc2ccc(C(C)=O)cc2[C@@H]1O in this test?
Outgoing: 0.0

Incoming: Which outcome was entered for the compound Cc1nc([N+](=O)[O-])cn1CC(=N)N in this test?
Outgoing: 0.0

Incoming: Which outcome was entered for the compound COc1ccc(N2C(=O)C3c4[nH]c5ccc(Br)cc5c4C4CCC(C(C)(C)C)CC4C3C2=O)cc1 (stereo unspecified) in this test?
Outgoing: 0.0

Incoming: Which outcome was entered for the compound O=C1c2nn(-c3ccccc3)nc2C(c2ccccc2)N1c1ccccc1 (stereo unspecified) in this test?
Outgoing: 0.0

Incoming: Which outcome was entered for the compound CCOC(=O)N(Cc1cccs1)c1cc(OC)c(OC)c(OC)c1 in this test?
Outgoing: 0.0

Incoming: Which outcome was entered for the compound CCOC(=O)c1ccc(-c2cccs2)n1C in this test?
Outgoing: 0.0

Incoming: Which outcome was entered for the compound C/C(=N\Nc1nc2ccccc2[nH]1)c1ncccn1 in this test?
Outgoing: 0.0

Incoming: Which outcome was entered for the compound CC1=C(N2CC2)C(=O)c2nc3n(c2C1=O)CCC3OC(=O)CCl (stereo unspecified) in this test?
Outgoing: 1.0

Incoming: Which outcome was entered for the compound CCOC(=O)/C(C#N)=C/c1ccc2c(-c3c(OCC)ccc4cc(/C=C(\C#N)C(=O)OCC)ccc34)c(OCC)ccc2c1 in this test?
Outgoing: 0.0

Incoming: Which outcome was entered for the compound COc1cc(OC)c2c(c1)C(=O)C(CC(C)O)=CC2=O (stereo unspecified) in this test?
Outgoing: 0.0

Incoming: Which outcome was entered for the compound C(=N\C12CC3CC(CC(C3)C1)C2)/C1CCCCC1 in this test?
Outgoing: 0.0
